- Test system: HS 578T breast
- MEASUREMENT DESCRIPTION: NCI tumour cell line growth inhibition, 48 h
Tick yes if TGI is 40 µM or greater. Tick no if TGI is less than 40 µM.

IN: Textbook exercise: given the entry `N=C(N)c1ccc(N=Nc2c(O)ccc3c2[nH]c2ccccc23)cc1` , state whether its TGI is greater than or equal to 40 µM.
OUT: yes

IN: Moving on to the next compound: CC1CCOc2ccc(cc2)C=Nc2ccc(cc2)CCc2ccc(cc2)N=Cc2ccc(cc2)OCC1 (stereo unspecified)
OUT: yes

IN: Moving on to the next compound: `COc1cc(CNc2ccc(SC)cc2)cc(OC)c1OC`
OUT: yes

IN: Moving on to the next compound: `O=C(Nc1ccc(-n2cc(-c3ccncc3)c(-c3ccc(Cl)c(O)c3)n2)cc1)Nc1ccc(Cl)c(C(F)(F)F)c1`
OUT: no

IN: Moving on to the next compound: `Cc1ccc([C@H]2CC(=O)C[C@H](c3ccc(C)cc3)C23C(=O)c2ccccc2C3=O)cc1`
OUT: yes

IN: Moving on to the next compound: `Cc1c(C2=C(Br)C(=O)N(C)C2=O)c(=O)n(C)c(=O)n1C`
OUT: yes

IN: Moving on to the next compound: `CC(C)CNC(=O)O`
OUT: yes

IN: Moving on to the next compound: `CN(CCCNC(=O)Cc1ccc2ccc3cccc4ccc1c2c34)CCCNc1cc(-c2ccc3ccccc3c2)nc2ccccc12`
OUT: no

IN: Moving on to the next compound: `CC(=O)/C=C/c1ccc(C#Cc2ccccc2)s1`
OUT: yes

IN: Moving on to the next compound: `O=C(COc1ccc(/C=C2\CSc3ccccc3C2=O)cc1)Nc1nccs1`
OUT: no

---

- Tested on: MDA-MB-231 breast
- MEASUREMENT DESCRIPTION: NCI tumour cell line growth inhibition, 48 h; in the data active = GI50 below about 0.43 µM; inactive = the rest
Respond using exactly one of the listed classes: active, inactive

IN: Record lookup: outcome of this test for `COc1ccc(C(=O)COc2cccc(/C=C3\Oc4ccc5ccccc5c4C3=O)c2)cc1` ?
OUT: inactive

IN: Moving on to the next molecule: `COc1ccc2c(O)cc3c(c2c1)[C@H](CCl)CN3C(=O)c1cc2cc(NC(=O)CCN3CCOCC3)ccc2[se]1`
OUT: active

IN: Moving on to the next molecule: `COc1cc(C2=C(c3cn(C)c4ccccc34)COC2=O)cc(OC)c1OC`
OUT: active

IN: Moving on to the next molecule: `CC(C)S(=O)(=O)c1ccccc1Nc1nc(Nc2cccc(NC(=O)CN)c2)ncc1Cl`
OUT: active

IN: Moving on to the next molecule: `CN(CCCNC(=O)Cc1ccc2ccc3cccc4ccc1c2c34)CCCNc1cc(-c2ccc3ccccc3c2)nc2ccccc12`
OUT: inactive

IN: Moving on to the next molecule: `O=[N+]([O-])c1ccc2c(c1)C(c1ccccc1Cl)=Nc1cn[nH]c1N2`
OUT: inactive

IN: Moving on to the next molecule: COc1ccc2c(c1)C(C)Cc1c(ncnc1-n1c(C)nc3ccccc31)N2C (centres undefined)
OUT: inactive

IN: Moving on to the next molecule: `N#C/C(=C/N1CCN(C(=O)c2ccco2)C1=S)C(=O)c1ccccc1`
OUT: inactive

IN: Moving on to the next molecule: `O=C(CSC(c1ccccc1)c1ccccc1)N/N=C/c1ccc(Cl)cc1Cl`
OUT: inactive

IN: Moving on to the next molecule: `O=C(/C=C/c1cc(CN2CCOCC2)c(O)c2ncccc12)c1cc(CN2CCOCC2)c(O)c2ncccc12`
OUT: active

IN: Moving on to the next molecule: `Cc1ccc(S(=O)(=O)NCCNc2nccc(-c3c(-c4ccc(F)cc4)nc4sccn34)n2)cc1`
OUT: inactive

IN: Moving on to the next molecule: `NC(N)=NCCCCCNc1noc(Cc2c[nH]c3cc(Br)ccc23)n1`
OUT: inactive

IN: Moving on to the next molecule: `COc1ccc2ncn(-c3cc(O[C@H](C)c4ccccc4Cl)c(C(N)=O)s3)c2c1`
OUT: active

IN: Moving on to the next molecule: `C[C@]12CC[C@@H]3c4ccc(O)cc4CC[C@H]3[C@@H]1CC[C@@H]2NS(=O)(=O)c1cccc(F)c1`
OUT: inactive
